- ASSAYED TARGET: T1, recombinant LILRB1 (human, UniProt Q8NHL6 24-461)
- T1 construct: LILRB1-Fc proteins were also made; also called LILRB1 recombinant proteins
- T1 sequence (Q8NHL6 24-461 limits assumed): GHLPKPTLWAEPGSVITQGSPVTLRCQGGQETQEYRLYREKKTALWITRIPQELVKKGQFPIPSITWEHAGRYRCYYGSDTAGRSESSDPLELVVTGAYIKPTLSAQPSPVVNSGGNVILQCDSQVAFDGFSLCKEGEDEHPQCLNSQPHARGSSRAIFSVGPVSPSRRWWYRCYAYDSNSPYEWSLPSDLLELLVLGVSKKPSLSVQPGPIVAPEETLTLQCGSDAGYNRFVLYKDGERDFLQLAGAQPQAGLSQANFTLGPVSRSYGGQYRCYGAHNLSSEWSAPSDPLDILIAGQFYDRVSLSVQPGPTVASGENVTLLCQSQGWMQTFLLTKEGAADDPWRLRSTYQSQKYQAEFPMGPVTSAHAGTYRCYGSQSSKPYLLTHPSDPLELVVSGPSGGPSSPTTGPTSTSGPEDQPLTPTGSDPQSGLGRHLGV
- TEST METHOD NOTES: ELISA, coated recombinant LILRB1, antibody titration;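 also: serially diluted anti-LILRB1 antibodies incubated 60 min at 37 °C on plates coated with 50 ng/well recombinant protein, TMB colorimetric development read as absorbance at 450 nm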
The entries below are paired with their reported EC50.
State just the number; it will be interpreted in mg/L.

B1-#226 (antibody, V domains shown, recombinant rabbit IgG) VH: QEQLVESGGGLVQPEGSLTLTCTASGFSFSSRQYISWVRRAPGKGLEWIGAIVTVNNKVHYANWAKGRFTISEASSTTVTLQMTSLTAADTATYFCARWRTFGLWGPGTLVTVSS VL: ELVLTQTPSSKSVAVGDTVTINCQASENVYSNNYTSWFQQKPGQPPKQLLYYAAYRASGVPSRFKGSGSGTEFTLSISDVVCDDAATYYCSGHKDYSDDGSTFGGGTEVVVK ... 0.00826
B1-#41-1 (antibody, V domains shown, recombinant rabbit IgG) VH: QSVKESGGDLVKPGASLTLTCTASGFSFSSSYWICWVRQAPGKGLEWIACIYAGSSGSTYYASWAKGRFTISKTSSTTVTLQMTSLTAADTATYFCARSTSGSYGAGLGLWGPGTLVTISS VL: ELDMTQTASPVSGAVGGTVTIKCQASQNIYNNIGWYQQKPGQPPNLLIYGPSYLASGVPSRFKGSRSGTEYTLTISDLECADAATYYCQSDDWMSISPDIVFGGGTEVEIK ... 0.0944

Proceeding to the next binder to report its EC50.
Lookup: Which EC50 reading was recorded for the binder B1-#72-1 (antibody, V domains shown, recombinant rabbit IgG) VH: QSVKESGGGLVQPEGSLALTCKASGIDLSNYWYMCWVRQAPGKGLEWIGCVATDSSRTHYATWAKGRFTVSKTSSTTVTLQMTSLTAADTATYFCARGSGASTNGVWWVMGDGMDLWGPGTLVTISS VL: ELVMTQTPSSVSAAVGGTVTIKCQASPSISTYLSWYQQKPGQPPKRLINRASTLASGVPPRFKGSGAGTQFTLTISDLECADAATYYCQNNYHSGSSNGGGVAFGGGTEVEIK ?
Found: 0.011
